Below is a list of entries, each paired with its recorded Emax value.
Molecular target: human FXR (NR1H4) (Homo sapiens (Human))
Sequence (Q96RI1 whole entry, the tested form may be a part): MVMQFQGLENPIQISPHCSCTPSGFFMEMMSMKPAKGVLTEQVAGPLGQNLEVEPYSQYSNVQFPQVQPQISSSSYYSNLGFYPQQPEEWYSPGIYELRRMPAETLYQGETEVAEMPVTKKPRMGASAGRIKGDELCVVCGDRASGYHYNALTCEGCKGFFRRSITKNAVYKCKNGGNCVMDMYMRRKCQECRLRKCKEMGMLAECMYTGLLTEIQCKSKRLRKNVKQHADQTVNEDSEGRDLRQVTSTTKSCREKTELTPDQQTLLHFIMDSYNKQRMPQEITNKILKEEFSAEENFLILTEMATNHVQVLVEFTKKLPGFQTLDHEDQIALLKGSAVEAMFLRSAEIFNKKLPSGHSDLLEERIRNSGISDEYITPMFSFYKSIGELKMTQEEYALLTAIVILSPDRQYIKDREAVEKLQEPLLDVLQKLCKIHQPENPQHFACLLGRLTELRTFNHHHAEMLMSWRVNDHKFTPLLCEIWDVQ
Experiment: Human FXR (NR1H4) Assay (Gal4 promoter driven luciferase reporter, Indigo Bioscience kit);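 also: 100% equals the efficacy of CDCA; efficacy normalized to CDCA set as 100%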
Format: cell-based
Settings: read-out: Efficacy (%)
Unit % implied. Number only.

CC[C@H]1[C@@H](O)[C@@H]2[C@H](CC[C@]3(C)[C@@H]([C@H](C)CCOC(=O)N4CCC(C(N)=O)CC4)CC[C@@H]23)[C@@]2(C)CC[C@@H](O)C[C@@H]12 [Example 171]    179
CC[C@H]1[C@@H](O)[C@@H]2[C@H](CC[C@]3(C)[C@@H]([C@H](C)CCOC(=O)NS(=O)(=O)N4CCCCC4)CC[C@@H]23)[C@@]2(C)CC[C@@H](O)C[C@@H]12 [Example 69]    368
CC[C@H]1[C@@H](O)[C@@H]2[C@H](CC[C@]3(C)[C@@H]([C@H](C)COC(=O)NS(=O)(=O)c4ccc(-n5cncn5)cc4)CC[C@@H]23)[C@@]2(C)CC[C@@H](O)C[C@@H]12 [Example 44-f]    216
CC[C@H]1[C@@H](O)[C@@H]2[C@H](CC[C@]3(C)[C@@H]([C@H](C)CCOC(=O)N4CCC[C@H]4CO)CC[C@@H]23)[C@@]2(C)CC[C@@H](O)C[C@@H]12 [Example 210]    156

Now examine the next entry.
Input line: Let me know recorded Emax for CC[C@H]1[C@@H](O)[C@@H]2[C@H](CC[C@]3(C)[C@@H]([C@H](C)COC(=O)NS(=O)(=O)c4ccc(N5CCCCC5)nc4)CC[C@@H]23)[C@@]2(C)CC[C@@H](O)C[C@@H]12 [Example 14] , thanks.
Output line: 270
